Listed compounds paired with reported ΔTm at 10 µM
# SYSTEM NAME: LIMK1KD (Homo sapiens)
# Construct: His6 (N, cleaved yes); made in house; host or cells: baculovirus; Sf9 for virus, TriEx insect cells for expression
# Sequence (P53667 330-637): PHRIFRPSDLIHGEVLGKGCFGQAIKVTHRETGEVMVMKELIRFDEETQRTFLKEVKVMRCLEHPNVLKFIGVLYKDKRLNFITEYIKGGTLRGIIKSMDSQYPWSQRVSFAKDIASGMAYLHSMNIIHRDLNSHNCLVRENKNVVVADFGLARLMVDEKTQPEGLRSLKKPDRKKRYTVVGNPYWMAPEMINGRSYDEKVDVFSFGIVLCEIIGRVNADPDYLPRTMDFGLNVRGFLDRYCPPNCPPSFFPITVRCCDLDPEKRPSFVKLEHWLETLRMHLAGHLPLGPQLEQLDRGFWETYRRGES
# PROCEDURE SUMMARY: Differential (dynamic) scanning fluorimetry (DSF) assay, LIMK1KD
# Assay type: binding
# CONDITION DETAILS: 2 µM LIMK1KD, compound 10 µM, single shot; read-out: TM Shift LIMK1 (K)

[
  {
    "COMPOUND": "COc1cc2nccc(Oc3ccc(NC(=O)C4(C(=O)Nc5ccc(F)cc5)CC4)cc3)c2cc1OC [Cabozantinib (XL184, BMS-907351), Cabozantinib]",
    "MEASUREMENT UNITS": "°C",
    "ΔTm at 10 µM": 2.5
  },
  {
    "COMPOUND": "COc1cc2ncnc(Nc3cccc(Cl)c3)c2cc1OC",
    "MEASUREMENT UNITS": "°C",
    "ΔTm at 10 µM": 1.4
  },
  {
    "COMPOUND": "O=C(Nc1c[nH]nc1-c1nc2ccc(CN3CCOCC3)cc2[nH]1)NC1CC1",
    "MEASUREMENT UNITS": "°C",
    "ΔTm at 10 µM": 9
  },
  {
    "COMPOUND": "Cc1cc(Nc2nc(N[C@@H](C)c3ncc(F)cn3)ncc2Cl)n[nH]1",
    "MEASUREMENT UNITS": "°C",
    "ΔTm at 10 µM": 4.7
  }
]

Hello, the source for this data is paper PMC6835155, in case you need it.
